The measured values listed here are drawn from PubChem BioAssay.

Assay: drug combination growth inhibition, ovarian cancer – cell-based, oncology-focused library, rucaparib conditional, profiling panel (AID 1508598)
Settings: patient-derived ovarian cancer cells, CellTiter-Glo viability, 144 h; at 0.313 µM; OCI-C5x cells; without rucaparib; stronger effect = lower value
ENDPOINT_LABEL: viability (%)

• COc1ccc(C2=NC(c3ccc(Cl)cc3)C(c3ccc(Cl)cc3)N2C(=O)N2CCNC(=O)C2)c(OC(C)C)c1 (stereo not drawn) = 115
• COc1cc(Nc2ncc(F)c(Nc3ccc4c(n3)NC(=O)C(C)(C)O4)n2)cc(OC)c1OC = 126
• C=CC(=O)Nc1cc(Nc2nccc(-c3cn(C)c4ccccc34)n2)c(OC)cc1N(C)CCN(C)C = 170
• CC1(COc2ccc3c(c2)ncn3-c2ccc3cccc(N4CCC(N)CC4)c3n2)COC1 = 137
• NC1(c2ccc(-c3nc4ccn5c(=O)[nH]nc5c4cc3-c3ccccc3)cc2)CCC1 = 141
• Cc1nc2c(-c3cnc(N)nc3)nc(N3CCOCC3)nc2n1C(C)C = 103
• CC(C)C[C@H](NC(=O)CNC(=O)c1cc(Cl)ccc1Cl)B(O)O = 22.4
• O=C(CCCCCCC(=O)Nc1ccc([C@H]2O[C@@H](CSc3nc(-c4ccccc4)c(-c4ccccc4)o3)C[C@@H](c3ccc(CO)cc3)O2)cc1)NO = 137
• O=C(O)[C@H](Cc1c[nH]c2ccccc12)N1C(=O)c2ccccc2C1=O = 119
• COc1cc2nccc(Oc3ccc(NC(=O)Nc4cc(C)on4)c(Cl)c3)c2cc1OC = 109
• Cc1ccc(C(=O)Nc2ccc(CN3CCN(C)CC3)c(C(F)(F)F)c2)cc1C#Cc1cnc2cccnn12 = 118
• COc1nc(C)cnc1NS(=O)(=O)c1cccnc1-c1ccc(-c2nnco2)cc1 = 112
• CC1(O)CC(c2nc(-c3ccc4ccc(-c5ccccc5)nc4c3)c3c(N)nccn23)C1 (stereo not drawn) = 57.9
